As shown below, each of these compounds has a reported IC50 value.
target or test system: PI3K beta (Homo sapiens, UniProt P42338)
Construct: for the full-length p110-b subunit are generated and fused by overlapping PCR; His tag (C); made in house; host or cells: baculovirus BV949; Tn5 (Trichoplusia ni) or TiniPro insect cells
Sequence (P42338 with tags, fused parts or gaps limits assumed): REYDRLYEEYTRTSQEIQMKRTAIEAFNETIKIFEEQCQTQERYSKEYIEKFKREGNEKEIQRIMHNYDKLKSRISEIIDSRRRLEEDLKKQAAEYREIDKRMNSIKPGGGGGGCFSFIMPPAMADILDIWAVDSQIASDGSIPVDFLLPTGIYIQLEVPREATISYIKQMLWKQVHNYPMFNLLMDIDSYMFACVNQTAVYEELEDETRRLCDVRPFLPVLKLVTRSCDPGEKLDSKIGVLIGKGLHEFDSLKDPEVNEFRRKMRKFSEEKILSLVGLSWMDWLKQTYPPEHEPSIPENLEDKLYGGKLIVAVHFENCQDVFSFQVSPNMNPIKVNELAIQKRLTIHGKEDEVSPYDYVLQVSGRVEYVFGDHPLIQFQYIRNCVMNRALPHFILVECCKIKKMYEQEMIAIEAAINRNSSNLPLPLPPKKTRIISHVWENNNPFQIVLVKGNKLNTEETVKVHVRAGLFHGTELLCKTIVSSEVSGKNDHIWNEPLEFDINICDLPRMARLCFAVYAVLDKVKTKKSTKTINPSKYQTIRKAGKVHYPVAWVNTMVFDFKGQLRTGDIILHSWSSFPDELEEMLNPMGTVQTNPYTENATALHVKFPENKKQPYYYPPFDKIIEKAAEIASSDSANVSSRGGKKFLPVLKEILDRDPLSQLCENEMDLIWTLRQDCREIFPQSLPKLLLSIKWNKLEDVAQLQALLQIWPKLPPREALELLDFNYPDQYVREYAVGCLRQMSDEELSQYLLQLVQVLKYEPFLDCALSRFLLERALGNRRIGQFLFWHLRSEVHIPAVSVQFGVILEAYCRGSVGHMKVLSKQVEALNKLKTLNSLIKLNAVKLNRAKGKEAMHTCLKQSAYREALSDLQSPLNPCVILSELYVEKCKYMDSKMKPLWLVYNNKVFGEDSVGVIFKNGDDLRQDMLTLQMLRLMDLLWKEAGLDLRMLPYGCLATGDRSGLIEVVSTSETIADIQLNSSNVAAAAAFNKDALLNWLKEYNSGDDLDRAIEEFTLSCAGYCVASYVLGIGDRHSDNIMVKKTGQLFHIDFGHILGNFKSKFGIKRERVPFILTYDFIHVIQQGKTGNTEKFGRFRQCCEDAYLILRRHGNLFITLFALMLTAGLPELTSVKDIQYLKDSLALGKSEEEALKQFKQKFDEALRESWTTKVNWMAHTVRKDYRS
assay name: PI3K beta kinase assay (Kinase-Glo luminescence)
Format: biochemical
applied conditions: read-out: PI3Kbeta/IC50
State the answer as a number, implicitly in nM.

// known answers, use as guide
Cn1c(=O)n(-c2cccnc2)c2c3cc(-c4ccc(CO)nc4)ccc3ncc21: 801
CCOc1ncc(-c2ccc3ncc4c(c3c2)n(-c2cccnc2C)c(=O)n4C)cn1: 749
Cn1c(=O)n(-c2cccnc2F)c2c3cc(-c4cnc(N)c(C(F)(F)F)c4)ccc3ncc21: 7

Qu. Return reported IC50; argument: COc1ccc(-c2ccc3ncc4c(c3c2)n(-c2cccnc2)c(=O)n4C)cc1OC
Ans. 295

Qu. Okay, and COc1ccc(-c2ccc3ncc4c(c3c2)n(-c2cccnc2C)c(=O)n4C)cn1 ?
Ans. 132

Qu. Okay, and CNC(=O)c1ccc(-c2ccc3ncc4c(c3c2)n(-c2cccnc2C)c(=O)n4C)cc1 ?
Ans. 682

Qu. Okay, and CNc1ncc(-c2ccc3ncc4c(c3c2)n(-c2cccnc2C)c(=O)n4C)cn1 ?
Ans. 165

Qu. Okay, and COc1ncccc1-n1c(=O)n(C)c2cnc3ccc(-c4cnc(N)c(C(F)(F)F)c4)cc3c21 ?
Ans. 23

###

As shown below, each of these molecules has a reported IC50 value.
Tested on: PKB Ser473 phosphorylation in Rat1-myr-HA-p110 beta cells
assay name: Reverse protein array, PKB Ser473 phosphorylation in Rat1-myr-HA-p110 beta cells
Format: cell-based
applied conditions: Rattus norvegicus, 0.5 h, 30 minutes compound incubation, read-out: p-PKB/IC50_beta

// known answers, use as guide
CNc1cc(-c2ccc3ncc4c(c3c2)n(-c2ccc(N(C)C)nc2C)c(=O)n4C)cnc1C [Example 19.2]: < 4.57 nM
COc1ncccc1-n1c(=O)n(C)c2cnc3ccc(-c4cnc5[nH]ccc5c4)cc3c21 [Example 1.2]: < 4.57 nM
CCOc1ccc(-c2ccc3ncc4c(c3c2)n(-c2cccnc2F)c(=O)n4C)cn1 [Example 6.1]: 56.2 nM
Cc1nc(F)ccc1-n1c(=O)n(C)c2cnc3ccc(-c4cnc5c(ccn5C)c4)cc3c21 [Example 7.2]: 29.5 nM
Cc1cccnc1-n1c(=O)n(C)c2cnc3ccc(-c4ccc(CO)nc4)cc3c21 [Example 3.9]: 689 nM

Turning now to a further record.
Qu. What measured IC50 is associated with COc1ccc(-c2ccc3ncc4c(c3c2)n(-c2ncccc2C)c(=O)n4C)cc1OC [Example 3.10] on PKB Ser473 phosphorylation in Rat1-myr-HA-p110 beta cells?
Ans. 516 nM

###

As shown below, each of these compounds has a reported IC50 value.
target or test system: PI3K alfa (Homo sapiens, UniProt P42336)
Construct: His tag (C); made in house; host or cells: baculovirus BV1075; Tn5 (Trichoplusia ni) or TiniPro insect cells
Sequence (P42336 with tags, fused parts or gaps limits assumed): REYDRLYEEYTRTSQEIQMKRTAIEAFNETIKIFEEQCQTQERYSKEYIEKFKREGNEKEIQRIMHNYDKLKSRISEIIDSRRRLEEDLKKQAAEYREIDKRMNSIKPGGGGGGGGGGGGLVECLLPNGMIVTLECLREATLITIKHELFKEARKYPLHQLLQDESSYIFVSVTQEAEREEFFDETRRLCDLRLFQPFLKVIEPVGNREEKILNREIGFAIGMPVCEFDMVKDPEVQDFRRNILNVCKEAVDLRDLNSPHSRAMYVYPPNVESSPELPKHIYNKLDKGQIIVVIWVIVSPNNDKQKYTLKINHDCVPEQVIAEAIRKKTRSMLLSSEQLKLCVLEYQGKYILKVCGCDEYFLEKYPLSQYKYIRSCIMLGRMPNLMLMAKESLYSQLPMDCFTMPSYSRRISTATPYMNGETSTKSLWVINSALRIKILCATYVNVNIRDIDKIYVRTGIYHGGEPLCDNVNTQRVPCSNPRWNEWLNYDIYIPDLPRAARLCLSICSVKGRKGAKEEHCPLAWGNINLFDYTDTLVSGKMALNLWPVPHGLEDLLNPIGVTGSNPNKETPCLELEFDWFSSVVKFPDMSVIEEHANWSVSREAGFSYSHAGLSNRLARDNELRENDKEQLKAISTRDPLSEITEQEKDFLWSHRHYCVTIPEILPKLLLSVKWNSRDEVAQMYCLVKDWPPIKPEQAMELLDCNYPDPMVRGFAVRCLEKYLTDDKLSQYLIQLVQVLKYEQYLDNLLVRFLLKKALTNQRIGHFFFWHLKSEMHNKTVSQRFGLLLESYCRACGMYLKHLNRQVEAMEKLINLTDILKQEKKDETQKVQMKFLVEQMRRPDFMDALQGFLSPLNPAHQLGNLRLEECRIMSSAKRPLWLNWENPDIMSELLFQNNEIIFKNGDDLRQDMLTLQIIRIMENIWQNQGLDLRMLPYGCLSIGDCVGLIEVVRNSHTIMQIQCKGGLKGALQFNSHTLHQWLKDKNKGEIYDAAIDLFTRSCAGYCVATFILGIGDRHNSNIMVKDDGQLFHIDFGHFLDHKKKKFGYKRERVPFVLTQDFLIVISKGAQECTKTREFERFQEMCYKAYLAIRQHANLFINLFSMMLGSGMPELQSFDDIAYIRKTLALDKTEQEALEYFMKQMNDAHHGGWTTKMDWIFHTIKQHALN
assay name: PI3K alpha kinase assay (Kinase-Glo luminescence)
Format: biochemical
applied conditions: read-out: EPK_PI3Kalfa/IC50
State the answer as a number, implicitly in nM.

// known answers, use as guide
CCNc1cc(-c2ccc3ncc4c(c3c2)n(-c2ccc(F)nc2C)c(=O)n4C)cnc1CO [Example 7.9]: 20
COc1ccc(-n2c(=O)n(C)c3cnc4ccc(-c5cnc(CO)c(OC)c5)cc4c32)c(OC)n1 [Example 8.14]: 59
COCCN(C)c1ccc(-n2c(=O)n(C)c3cnc4ccc(-c5cnc6c(ccn6C)c5)cc4c32)c(C)n1 [Example 15.7]: 18

Qu. Return reported IC50; argument: Cc1ncccc1-n1c(=O)n(C)c2cnc3ccc(-c4cncc(N)c4)cc3c21 [Example 2.25]
Ans. 64

Qu. Okay, and COCc1ncc(-c2ccc3ncc4c(c3c2)n(-c2cccnc2C)c(=O)n4C)cc1OC [Example 2.30] ?
Ans. 75

Qu. Okay, and COc1ccc(-n2c(=O)n(C)c3cnc4ccc(-c5cnc(CO)c(OC)c5)cc4c32)c(C)n1 [Example 11.8] ?
Ans. 16

Qu. Okay, and Cc1nc(N2CCN(C)C(=O)C2)ccc1-n1c(=O)n(C)c2cnc3ccc(-c4cnc(N)c(C(F)(F)F)c4)cc3c21 [Example 21.1] ?
Ans. 5

###

target or test system: PI3K alfa (Homo sapiens, UniProt P42336)
Construct: His tag (C); made in house; host or cells: baculovirus BV1075; Tn5 (Trichoplusia ni) or TiniPro insect cells
assay name: PI3K alpha kinase assay (Kinase-Glo luminescence)
Type: biochemical
applied conditions: read-out: EPK_PI3Kalfa/IC50
value kind: IC50 (nM)
State the answer as a number, implicitly in nM.

// known answers, use as guide
Cc1nc(N2CCC2)ccc1-n1c(=O)n(C)c2cnc3ccc(-c4cncc(OC(C)C)c4)cc3c21: 33
CCN(C)c1ccc(-n2c(=O)n(C)c3cnc4ccc(-c5ccc(NC)nc5)cc4c32)c(C)n1: 36
Cc1nc(C(C)(C)O)ccc1-n1c(=O)n(C)c2cnc3ccc(-c4cncc(C(C)(C)C#N)c4)cc3c21: 2

Turning now to a further record.
Qu. What measured IC50 is associated with COc1cc(-c2ccc3ncc4c(c3c2)n(-c2ccc(N)nc2C)c(=O)n4C)cnc1CO on PI3K alfa (Homo sapiens, UniProt P42336)?
Ans. 54

###

As shown below, each of these compounds has a reported solubility thermodynamic value.
assay name: High-throughput equilibrium solubility at pH 6.8
Type: physicochemical
applied conditions: pH 6.8, aqueous buffer, thermodynamic from solid; read-out: HT-Eq Sol/pH 6.8
State the answer as a number, implicitly in µg/mL.

CNc1ncc(-c2ccc3ncc4c(c3c2)n(-c2ccc(N3CC[C@H](O)C3)nc2C)c(=O)n4C)cc1F: 7
CNc1ncc(-c2ccc3ncc4c(c3c2)n(-c2ccc(N(C)CCOC)nc2C)c(=O)n4C)cn1: 81
Cc1nc(F)ccc1-n1c(=O)n(C)c2cnc3ccc(-c4cnc5c(ccn5C)c4)cc3c21: 3

Qu. Return reported solubility thermodynamic; argument: CCOc1cc(-c2ccc3ncc4c(c3c2)n(-c2ccc(F)nc2C)c(=O)n4C)cnc1COC
Ans. 94

Qu. Okay, and Cc1nc(N(C)C)ccc1-n1c(=O)n(C)c2cnc3ccc(-c4cncc(N)c4)cc3c21 ?
Ans. 10

Qu. Okay, and Cc1cc(F)ncc1-n1c(=O)n(C)c2cnc3ccc(-c4cnc(N)c(C(F)(F)F)c4)cc3c21 ?
Ans. 3

Qu. Okay, and CNc1ncc(-c2ccc3ncc4c(c3c2)n(-c2cccnc2C)c(=O)n4C)cn1 ?
Ans. 14

Qu. Okay, and COc1ccc(-c2ccc3ncc4c(c3c2)n(-c2ncccc2C)c(=O)n4C)cc1OC ?
Ans. 195

###

As shown below, each of these compounds has a reported log10 of IC50 value.
target or test system: PI3K beta (Homo sapiens)
Construct: for the full-length p110-b subunit are generated and fused by overlapping PCR; His tag (C); made in house; host or cells: baculovirus BV949; Tn5 (Trichoplusia ni) or TiniPro insect cells
assay name: PI3K beta kinase assay (Kinase-Glo luminescence)
Assay type: biochemical
applied conditions: read-out: EPK_PI3Kbeta/IC50
Hey, these are logged values: log10 of IC50, nM being the unit before logging.

// known answers, use as guide
CCNc1cc(-c2ccc3ncc4c(c3c2)n(-c2ccc(F)nc2C)c(=O)n4C)cnc1CO: 1.84
CNc1ncc(-c2ccc3ncc4c(c3c2)n(-c2ccc(C(F)(F)F)nc2C)c(=O)n4C)cc1COC: 1.79
Cc1nc(N2CC(F)(F)C(F)(F)C2)ccc1-n1c(=O)n(C)c2cnc3ccc(-c4cncc(C(C)(C)O)c4)cc3c21: 1.53

Qu. Return reported log10 of IC50; argument: COc1ccc(-n2c(=O)n(C)c3cnc4ccc(-c5cnc(CO)c(OC)c5)cc4c32)c(OC)n1
Ans. 3.19

Qu. Okay, and COc1ccc(-n2c(=O)n(C)c3cnc4ccc(-c5cnc(CO)c(OC)c5)cc4c32)c(C)n1 ?
Ans. 3.41

Qu. Okay, and CNc1cc(-c2ccc3ncc4c(c3c2)n(-c2cccnc2C)c(=O)n4C)cnc1C ?
Ans. 1.79

Qu. Okay, and Cc1ncccc1-n1c(=O)n(C)c2cnc3ccc(-c4cncc(N5CCC5)c4)cc3c21 ?
Ans. 2.89

Qu. Okay, and CCNc1ncc(-c2ccc3ncc4c(c3c2)n(-c2ccc(N3CC[C@@H](O)C3)nc2C)c(=O)n4C)cn1 ?
Ans. 2.62

###

As shown below, each of these compounds has a reported pIC50 value.
target or test system: PI3K beta (Homo sapiens)
Construct: for the full-length p110-b subunit are generated and fused by overlapping PCR; His tag (C); made in house; host or cells: baculovirus BV949; Tn5 (Trichoplusia ni) or TiniPro insect cells
assay name: PI3K beta kinase assay (Kinase-Glo luminescence)
Assay type: biochemical
applied conditions: read-out: EPK_PI3Kbeta/IC50
// scale note: pIC50 = -log10(conc_M); give the bare number

// known answers, use as guide
CNc1ncc(-c2ccc3ncc4c(c3c2)n(-c2ccc(N(C)CCO)nc2C)c(=O)n4C)cn1: 7.00
COCCN(C)c1ccc(-n2c(=O)n(C)c3cnc4ccc(-c5cnc6c(ccn6C)c5)cc4c32)c(C)n1: 6.55
CCOc1ccc(-c2ccc3ncc4c(c3c2)n(-c2ccc(N(C)CCOC)nc2C)c(=O)n4C)cn1: 6.10
COc1cc(-c2ccc3ncc4c(c3c2)n(-c2ccc(N3CC(O)C3)nc2C)c(=O)n4C)cnc1CO: 6.56
COc1cc(-c2ccc3ncc4c(c3c2)n(-c2ccc(N3CC(F)(F)C3)nc2C)c(=O)n4C)cnc1CO: 5.64
Cc1ncccc1-n1c(=O)n(C)c2cnc3ccc(-c4cncc(NC(C)C)c4)cc3c21: 7.40
CCNc1cc(-c2ccc3ncc4c(c3c2)n(-c2cnc(F)cc2C)c(=O)n4C)cnc1C: 6.82
CCNc1ncc(-c2ccc3ncc4c(c3c2)n(-c2ccc(C(C)(C)O)nc2C)c(=O)n4C)cn1: 6.20
COc1ccc(-n2c(=O)n(C)c3cnc4ccc(-c5cnc(N(C)C)nc5)cc4c32)c(Cl)n1: 7.35
CNc1cncc(-c2ccc3ncc4c(c3c2)n(-c2cccnc2C)c(=O)n4C)c1: 7.51

Turning now to a further record.
Qu. What measured pIC50 is associated with CCOc1cc(-c2ccc3ncc4c(c3c2)n(-c2ccc(N3CCCC3)nc2C)c(=O)n4C)cnc1COC on PI3K beta (Homo sapiens)?
Ans. 6.54
